The values you see were collected from patent US20180258140A1.

Collected FGFR1 Kinase % Inhibition values appear next to each entry.
- studyTarget: human FGFR1 kinase (human, UniProt P11362 398-822, limits assumed)
- Sequence (P11362 398-822 limits assumed): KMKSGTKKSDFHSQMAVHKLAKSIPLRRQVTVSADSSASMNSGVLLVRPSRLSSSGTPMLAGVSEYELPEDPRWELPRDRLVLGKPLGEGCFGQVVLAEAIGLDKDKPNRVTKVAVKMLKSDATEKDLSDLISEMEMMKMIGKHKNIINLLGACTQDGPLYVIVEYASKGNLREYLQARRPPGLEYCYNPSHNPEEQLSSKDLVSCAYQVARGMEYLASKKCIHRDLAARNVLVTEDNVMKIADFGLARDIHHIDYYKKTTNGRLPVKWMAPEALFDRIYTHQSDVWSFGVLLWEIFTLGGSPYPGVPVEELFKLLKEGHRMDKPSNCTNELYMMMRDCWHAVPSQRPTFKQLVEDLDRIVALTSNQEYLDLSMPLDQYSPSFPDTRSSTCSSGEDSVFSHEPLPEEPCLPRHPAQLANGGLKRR
- assaySummary: cell-based or functional assay
*: point of attachment. Palmitoyl = CCCCCCCCCCCCCCCC(=O)*
Entry rule: numbers only, all in %.

[ask] Input Palmitoyl-KFNLPLGNYKKA-NH2 (SMILES CCCCCCCCCCCCCCCC(=O)N[C@@H](CCCCN)C(=O)N[C@@H](Cc1ccccc1)C(=O)N[C@@H](CC(N)=O)C(=O)N[C@@H](CC(C)C)C(=O)N1CCC[C@H]1C(=O)N[C@@H](CC(C)C)C(=O)NCC(=O)N[C@@H](CC(N)=O)C(=O)N[C@@H](Cc1ccc(O)cc1)C(=O)N[C@@H](CCCCN)C(=O)N[C@@H](CCCCN)C(=O)N[C@@H](C)C(N)=O) [Peptide 12: Palm-Lys-Phe-Asn-Leu-Pro-Leu-Gly-Asn-Tyr-Lys-Lys-Ala-NH2] , output reported FGFR1 Kinase % Inhibition.
[reply] 0

[ask] Input Palmitoyl-KFNLPLGAYKKP-NH2 (SMILES CCCCCCCCCCCCCCCC(=O)N[C@@H](CCCCN)C(=O)N[C@@H](Cc1ccccc1)C(=O)N[C@@H](CC(N)=O)C(=O)N[C@@H](CC(C)C)C(=O)N1CCC[C@H]1C(=O)N[C@@H](CC(C)C)C(=O)NCC(=O)N[C@@H](C)C(=O)N[C@@H](Cc1ccc(O)cc1)C(=O)N[C@@H](CCCCN)C(=O)N[C@@H](CCCCN)C(=O)N1CCC[C@H]1C(N)=O) [Peptide 8: Palm-Lys-Phe-Asn-Leu-Pro-Leu-Gly-Ala-Tyr-Lys-Lys-Pro-NH2] , output reported FGFR1 Kinase % Inhibition.
[reply] 0
